Molecular target: crude membranes from rat cerebellum (rat)
Experiment: radioligand saturation binding, non-linear regression, fit weighted 1/Y
Positions of bridges follow the written chain, without caps; N, C: chain ends. *: point of attachment. Boc = CC(C)(C)OC(=O)*
readout-type: Kd (nM)
Provide the reading as a plain figure in nM.

// query Would you mind telling me what Kd value was observed for Boc-PPSVVSG-OMe (bridge 3-6; also: tritium label) ?
// result 92.7

From: patent US8710008B2
